Molecular target: Cellular tumor antigen p53 (Homo sapiens) (UniProt P04637)
Sequence (P04637 whole entry, looked up): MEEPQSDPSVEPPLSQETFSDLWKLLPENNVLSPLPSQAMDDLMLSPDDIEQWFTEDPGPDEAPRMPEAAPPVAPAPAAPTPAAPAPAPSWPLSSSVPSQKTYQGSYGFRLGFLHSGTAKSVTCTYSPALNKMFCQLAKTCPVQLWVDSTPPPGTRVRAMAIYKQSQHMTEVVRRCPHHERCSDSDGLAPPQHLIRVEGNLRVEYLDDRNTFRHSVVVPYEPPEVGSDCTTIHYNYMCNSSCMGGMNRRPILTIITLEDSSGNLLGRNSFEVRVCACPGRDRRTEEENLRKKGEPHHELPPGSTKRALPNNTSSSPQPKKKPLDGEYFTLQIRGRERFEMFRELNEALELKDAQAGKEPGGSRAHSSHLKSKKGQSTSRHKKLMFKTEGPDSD
Test: Confirmatory qHTS for small molecule compounds that upregulate eGFP-tagged delta133p53alpha (in C-terminal) cells.
Details: delta133p53alpha-eGFP (C-terminal) reporter cells, GFP fluorescence upregulation; series mostly up to 57.5 µM
Description: Assay Development and Screening Technology National Center for Advancing Translational Sciences (NCATS), National Institute of Health (NIH), Rockville, Maryland Cellular senescence (CS) is one of the hallmarks of aging and age-related diseases. […] Here we report the development and validation of a cell-based quantitative high throughput screening (qHTS) assay in 1,536-well format. […]
Records with an inconclusive call do not appear. Activity calls are given as the source filed them. The call rests on the fitted dose curve; in most records, active means well fitted activation curve with a large enough effect; inconclusive means small, poorly fitted or top-dose-only effect; inactive means no such curve, though single readings can be large or run the other way.
Classes used: class 1 for active, class 0 for inactive

compound	label class
COC(=O)[C@H]1[C@H]2C[C@@H]3c4[nH]c5cc(OC)ccc5c4CCN3C[C@H]2C[C@@H](OC(=O)c2cc(OC)c(OC)c(OC)c2)[C@@H]1OC	class 1
C[C@]12CC[C@@H]3c4ccc(O)cc4C[C@@H](CCCCCCCCCS(=O)CCCC(F)(F)C(F)(F)F)[C@H]3[C@@H]1CC[C@@H]2O (stereo not given in full)	class 0
C=CCNc1ncnc2ccc(Br)cc12	class 0
CC(=O)N[C@@H](CS)C(=O)O	class 0
O=C1C(SCCO)=C(SCCO)C(=O)c2ccccc21	class 1
N=c1ccn2c(n1)O[C@H]1[C@H](O)[C@@H](CO)O[C@H]12	class 0
CC(C)(CO)Cc1cc(C(C)(C)C)c(O)c(C(C)(C)C)c1	class 0
CC(C)(C(=O)O)c1ccc(C(O)CCCN2CCC(C(O)(c3ccccc3)c3ccccc3)CC2)cc1 (stereo not given)	class 0
CC1c2cccc(O)c2C(O)=C2C(=O)C3(O)C(O)=C(C(N)=O)C(=O)C(N(C)C)C3C(O)C21 (stereo not given)	class 1
Cc1cc(O)c2c(c1)C(=O)c1cc(O)cc(O)c1C2=O	class 1

====

target: Cellular tumor antigen p53 (Homo sapiens) (UniProt P04637); test: Confirmatory qHTS for small molecule compounds that upregulate eGFP-tagged delta133p53alpha (in C-terminal) cells.; conditions: delta133p53alpha-eGFP (C-terminal) reporter cells, GFP fluorescence upregulation; series mostly up to 57.5 µM
Inconclusive results are not listed. Calls of active or inactive are those of the source. Calls follow the shape of the dose curve; as a rule, active = well fitted activation curve with a large enough effect; inconclusive = small, poorly fitted or top-dose-only effect; inactive = no such curve, though single readings can be large or run the other way.
Outcomes: active, inactive

compound	label class
O=C(c1cc(O)c(O)c([N+](=O)[O-])c1)c1ccccc1F	inactive
CC[n+]1c(/C=C/C=C2/N(C)c3ccccc3C2(C)C)sc2ccccc21	active
O=C1NC(=O)c2c1c(-c1ccccc1)cc1[nH]c3ccc(O)cc3c21	inactive
CCN(CC)CCCC(C)Nc1c2ccc(Cl)cc2nc2ccc(OC)cc12 (stereo not given)	active
Nc1nc(Cl)nc2c1ncn2[C@@H]1O[C@H](COP(=O)(O)OP(=O)(O)OP(=O)(O)O)[C@@H](O)[C@H]1O	inactive

====

target: Cellular tumor antigen p53 (Homo sapiens); assay: Confirmatory qHTS for small molecule compounds that upregulate eGFP-tagged delta133p53alpha (in C-terminal) cells.; details: delta133p53alpha-eGFP (C-terminal) reporter cells, GFP fluorescence upregulation; series mostly up to 57.5 µM
Inconclusive results are not listed. Activity calls are given as the source filed them. The call rests on the fitted dose curve; in most records, active means well fitted activation curve with a large enough effect; inconclusive means small, poorly fitted or top-dose-only effect; inactive means no such curve, though single readings can be large or run the other way.
readout type: Potency

compound	readout type	value measured
O=C(N[C@@H](Cc1ccccc1)C(=O)CCl)OCc1ccccc1	Potency	3.85 µM (active)
CC(C)(C)[C@]1(O)CCN2C[C@H]3c4ccccc4CCc4cccc(c43)[C@@H]2C1	Potency	inactive
O=C1NC(=O)c2cc(Nc3ccccc3)c(Nc3ccccc3)cc21	Potency	9.68 µM (active)
CCN1CCCC1CNC(=O)c1cc(S(=O)(=O)CC)c(N)cc1OC (stereo unspecified)	Potency	inactive
CNC(=O)[C@H]1O[C@@H](n2cnc3c(NCc4cccc(I)c4)ncnc32)[C@H](O)[C@@H]1O	Potency	inactive
CC1CN(S(=O)(=O)c2cccc3cnccc23)CCN1 (stereo unspecified)	Potency	inactive

====

molecular target: Cellular tumor antigen p53 (Homo sapiens) (UniProt P04637); test: Confirmatory qHTS for small molecule compounds that upregulate eGFP-tagged delta133p53alpha (in C-terminal) cells.; settings: delta133p53alpha-eGFP (C-terminal) reporter cells, GFP fluorescence upregulation; series mostly up to 57.5 µM
Results filed as inconclusive are left out. The source made the active and inactive calls. The call rests on the fitted dose curve; in most records, active means well fitted activation curve with a large enough effect; inconclusive means small, poorly fitted or top-dose-only effect; inactive means no such curve, though single readings can be large or run the other way.
Possible outcomes: active, inactive

compound	label class
CN(C)C(=O)C(CCN1CCC(O)(c2ccc(Cl)cc2)CC1)(c1ccccc1)c1ccccc1	inactive
COc1cc(/C=C(\C#N)C(=O)c2ccc(O)c(O)c2)cc(I)c1O	active
CSc1ccccc1N1CCN(CCCCCC(=O)NC2CCCc3ccccc32)CC1 (centres undefined)	inactive
Nc1nc2ccc(Cl)cc2c2nc(-c3ccco3)nn12	inactive
N=S(=O)(O)Cc1noc2ccccc12	inactive
CCCCS(=N)(=O)CCC(N)C(=O)O (centres undefined)	inactive
C#C[C@]1(O)CC[C@H]2[C@@H]3CCC4=Cc5oncc5CC4(C)[C@H]3CCC21C (some centres undefined)	inactive
CCCCCCCCCCCCCCCCCCOC[C@H](COP(=O)([O-])OCC[N+](C)(C)C)OC	inactive
CCOC(=O)Nc1ccc(NCc2ccc(F)cc2)nc1N	inactive
NS(=O)(=O)c1ccc(-n2nc(C(F)(F)F)cc2-c2ccc(Cl)cc2)cc1	inactive
CC(=O)SC1CC2=CC(=O)CC[C@]2(C)C2CC[C@@]3(C)C(CC[C@@]34CCC(=O)O4)C12 (some centres undefined)	inactive
CCN1CCCC1CNC(=O)c1cc(S(N)(=O)=O)ccc1OC (centres undefined)	inactive
CN(C)S(=O)(=O)c1ccc2c(c1)/C(=C/c1cc3c([nH]1)CCCC3)C(=O)N2	active
Cn1c(=O)c2[nH]c(-c3ccccc3)nc2n(C)c1=O	inactive
